Each recorded value in this set is attributed to patent US12447153B2.

efflux ratio at 2 h, 1 µM for assorted molecules
Experimental System: MDR1 (P-gp) (Homo sapiens (Human))
Sequence (P08183 whole entry): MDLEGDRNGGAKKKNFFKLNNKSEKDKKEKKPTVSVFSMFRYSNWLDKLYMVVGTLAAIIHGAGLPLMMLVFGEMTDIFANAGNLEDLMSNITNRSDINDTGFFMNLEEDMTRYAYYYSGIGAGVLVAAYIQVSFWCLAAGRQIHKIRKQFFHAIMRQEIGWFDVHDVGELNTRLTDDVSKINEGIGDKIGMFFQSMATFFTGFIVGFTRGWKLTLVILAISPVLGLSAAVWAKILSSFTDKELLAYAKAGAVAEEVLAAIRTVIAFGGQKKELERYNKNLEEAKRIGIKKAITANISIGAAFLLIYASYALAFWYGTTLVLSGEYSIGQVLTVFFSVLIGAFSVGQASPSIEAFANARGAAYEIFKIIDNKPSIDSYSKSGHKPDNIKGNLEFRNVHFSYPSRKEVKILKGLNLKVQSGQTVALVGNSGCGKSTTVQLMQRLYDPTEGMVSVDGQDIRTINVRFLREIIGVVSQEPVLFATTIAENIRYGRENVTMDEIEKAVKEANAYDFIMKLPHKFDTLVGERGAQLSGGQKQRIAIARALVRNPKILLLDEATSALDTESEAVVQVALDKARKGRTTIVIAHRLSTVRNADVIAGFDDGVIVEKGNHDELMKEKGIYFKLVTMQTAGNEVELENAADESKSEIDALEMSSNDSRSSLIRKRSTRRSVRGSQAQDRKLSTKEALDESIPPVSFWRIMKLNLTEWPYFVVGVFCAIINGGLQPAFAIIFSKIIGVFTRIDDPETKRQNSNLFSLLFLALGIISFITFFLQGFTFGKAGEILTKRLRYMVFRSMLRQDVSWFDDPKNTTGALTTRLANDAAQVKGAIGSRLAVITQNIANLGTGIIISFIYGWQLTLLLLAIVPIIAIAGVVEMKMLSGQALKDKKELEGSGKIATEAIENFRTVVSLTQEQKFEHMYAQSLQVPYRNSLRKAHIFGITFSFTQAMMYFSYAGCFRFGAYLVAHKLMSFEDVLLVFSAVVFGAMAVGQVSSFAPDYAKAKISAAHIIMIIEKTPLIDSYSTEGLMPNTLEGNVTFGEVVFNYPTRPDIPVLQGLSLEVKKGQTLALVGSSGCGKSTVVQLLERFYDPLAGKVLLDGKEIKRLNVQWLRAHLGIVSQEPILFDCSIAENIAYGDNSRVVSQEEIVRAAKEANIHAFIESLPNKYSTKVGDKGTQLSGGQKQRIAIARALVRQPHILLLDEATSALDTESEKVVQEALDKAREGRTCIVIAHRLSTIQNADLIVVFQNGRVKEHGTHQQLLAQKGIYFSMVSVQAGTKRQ
Test Name: in vitro
Setup Conditions: pig, LLC-PK1

molecule="C=CC(=O)N1CCC[C@@H](c2ccc3ncnc(Nc4cc(C)c(Oc5ccc6c(c5)ncn6C)cc4F)c3n2)C1 (racemic)" value_reported=1.4
molecule=C=CC(=O)N1[C@@H]2CC[C@H]1[C@H](c1ccc3ncnc(Nc4ccc(Oc5ccc6c(c5)ncn6C)c(C)c4F)c3n1)C2 value_reported=2.6
molecule=Cc1c(Oc2ccn3ncnc3c2)ccc(Nc2ncnc3ccc(N4CCN(C#N)C(C)(C)C4)nc23)c1F value_reported=1.2

Give efflux ratio at 2 h, 1 µM (MDR1 (P-gp) (Homo sapiens (Human))) of the following molecule: "C=CC(=O)N1CCN(c2ccc3ncnc(Nc4ccc(Oc5cnc6c(c5)ncn6C)c(C)c4F)c3n2)C[C@@H]1C1CC1"
0.9

Give efflux ratio at 2 h, 1 µM (MDR1 (P-gp) (Homo sapiens (Human))) of the following molecule: "C=CC(=O)N1CC2CC(C1)N2c1ccc2ncnc(Nc3cc(Cl)c(Oc4ccn5ncnc5c4)cc3F)c2n1"
2.5

Give efflux ratio at 2 h, 1 µM (MDR1 (P-gp) (Homo sapiens (Human))) of the following molecule: "C=CC(=O)N1CCC(N(C)c2ccc3ncnc(Nc4ccc(Oc5ccn6ncnc6c5)c(C)c4F)c3n2)CC1"
1.9

Give efflux ratio at 2 h, 1 µM (MDR1 (P-gp) (Homo sapiens (Human))) of the following molecule: C=CC(=O)N1CCCC(c2ccc3ncnc(Nc4ccc(Oc5ccn6ncnc6c5)c(C)c4)c3n2)CC1 (stereo not shown)
1.5

###

Experimental System: UniProt:P00533
Test Name: Cellular Phosphorylation Assay, Assay 5 (EGF-stimulated EGFR phosphorylation, NIH 3T3 cells)
Type: cell-based
Setup Conditions: cellular EGFR WT phosphorylation, EGF-stimulated
Field: label. Allowed values: true (1) (IC50 < 700 nM) or false (0) (IC50 >= 700 nM).

Field: example entries. Status: answers known.
molecule=C=CC(=O)N1CCN(c2ccc3ncnc(Nc4ccc(Oc5cnc6c(c5)ncn6C)c(C)c4F)c3n2)C[C@H]1C cat="false (0)"
molecule=C=CC(=O)N1C[C@@H]2C[C@H]1CC[C@@H]2c1ccc2ncnc(Nc3ccc(Oc4ccn5ncnc5c4)c(C)c3F)c2n1 cat="false (0)"
molecule=C=CC(=O)N1CC2CCC(C1)N2c1ccc2ncnc(Nc3ccc(Oc4ccn5ncnc5c4)c(C)c3F)c2n1 cat="true (1)"
molecule=C=CC(=O)N1C[C@H]2CC[C@H](c3ccc4ncnc(Nc5cc(C)c(Oc6ccn7ncnc7c6)cc5F)c4n3)[C@H]2C1 cat="false (0)"
molecule=C=CC(=O)N1C[C@H]2C[C@@H]1[C@H](c1ccc3ncnc(Nc4ccc(Oc5cnc6c(c5)ncn6C)c(C)c4)c3n1)C2 cat="false (0)"
molecule=C=CC(=O)N1CCC12CN(c1ccc3ncnc(Nc4cc(Cl)c(Oc5ccn6ncnc6c5)cc4F)c3n1)C2 cat="true (1)"
molecule=C=CC(=O)N1C[C@H]2C[C@@H]1[C@H](c1ccc3ncnc(Nc4ccc(Oc5cnc6c(c5)ncn6C)c(C)c4F)c3n1)C2 cat="false (0)"
molecule=C=CC(=O)N1CC(c2ccc3ncnc(Nc4ccc(Oc5ccn6ncnc6c5)c(C)c4F)c3n2)C1 cat="false (0)"
molecule=C=CC(=O)N1CCN(c2ccc3ncnc(Nc4ccc(Oc5cc(F)c6c(c5)ncn6C)c(C)c4)c3n2)CC1(C)C cat="false (0)"
molecule=C=CC(=O)N1[C@H](C)CN(c2ccc3ncnc(Nc4ccc(Oc5cnc6c(c5)ncn6C)c(C)c4F)c3n2)C[C@@H]1C cat="false (0)"

Below 700 nM on IC50? Entry CC#CC(=O)N1C[C@@H]2CC[C@H]1CN2c1ccc2ncnc(Nc3ccc(Oc4ccn5ncnc5c4)c(C)c3F)c2n1 [Example 333]
false (0)

Below 700 nM on IC50? Entry "C=CC(=O)N1C[C@H]2CC[C@@H]1[C@H](c1ccc3ncnc(Nc4ccc(Oc5ccn6ncnc6c5)c(C)c4F)c3n1)C2"
false (0)

###

IC50 for assorted molecules
Experimental System: EGFR (Homo sapiens (Human), UniProt P00533)
Sequence (P00533 25-1210): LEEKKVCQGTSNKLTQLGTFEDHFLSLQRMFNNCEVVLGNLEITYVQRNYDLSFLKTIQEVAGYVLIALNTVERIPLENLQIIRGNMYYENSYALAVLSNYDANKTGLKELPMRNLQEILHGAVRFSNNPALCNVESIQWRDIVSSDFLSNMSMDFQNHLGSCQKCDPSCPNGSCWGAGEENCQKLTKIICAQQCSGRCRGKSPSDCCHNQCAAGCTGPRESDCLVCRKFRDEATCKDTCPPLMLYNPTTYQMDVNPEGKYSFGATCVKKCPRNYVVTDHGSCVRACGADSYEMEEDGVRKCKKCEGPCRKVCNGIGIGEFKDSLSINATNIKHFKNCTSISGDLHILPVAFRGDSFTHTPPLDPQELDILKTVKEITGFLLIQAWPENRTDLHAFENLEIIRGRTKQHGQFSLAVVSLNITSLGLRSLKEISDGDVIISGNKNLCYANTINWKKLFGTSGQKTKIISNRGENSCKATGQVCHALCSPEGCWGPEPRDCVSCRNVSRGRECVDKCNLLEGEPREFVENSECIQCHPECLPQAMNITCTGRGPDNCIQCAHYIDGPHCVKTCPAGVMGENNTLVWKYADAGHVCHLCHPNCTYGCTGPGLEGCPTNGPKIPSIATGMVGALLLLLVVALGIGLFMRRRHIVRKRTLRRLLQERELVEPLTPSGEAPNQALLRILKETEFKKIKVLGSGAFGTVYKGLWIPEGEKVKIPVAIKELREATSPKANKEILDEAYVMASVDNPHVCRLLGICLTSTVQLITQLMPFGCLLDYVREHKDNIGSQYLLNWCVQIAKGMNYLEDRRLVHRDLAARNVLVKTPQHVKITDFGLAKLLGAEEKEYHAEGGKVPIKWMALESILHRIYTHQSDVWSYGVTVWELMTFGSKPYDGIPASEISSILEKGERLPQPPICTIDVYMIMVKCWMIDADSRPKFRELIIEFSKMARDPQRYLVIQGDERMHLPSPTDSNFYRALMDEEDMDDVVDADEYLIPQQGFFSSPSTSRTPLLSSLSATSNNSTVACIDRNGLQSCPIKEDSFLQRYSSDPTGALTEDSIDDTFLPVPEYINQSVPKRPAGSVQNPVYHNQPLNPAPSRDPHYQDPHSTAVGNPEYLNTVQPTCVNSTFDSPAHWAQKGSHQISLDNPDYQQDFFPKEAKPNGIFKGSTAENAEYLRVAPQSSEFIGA
Test Name: ErbB Enzyme Assay (HTRF KinEASE-TK), Assay 3
Assay type: biochemical
Setup Conditions: EGFR enzyme

// solved cases for IC50 follow
molecule=C=CC(=O)N1C[C@H]2C[C@@H]1CN(c1ccc3ncnc(Nc4cc(Cl)c(Oc5ccc6c(c5)ncn6C)cc4F)c3n1)C2 value_reported="≥ 10 µM"
molecule=Cc1c(Oc2ccn3ncnc3c2)ccc(Nc2ncnc3ccc(N4CCN(C#N)C(C)(C)C4)nc23)c1F value_reported="≥ 10 µM"

Need IC50 of "C=CC(=O)N1C2CCC1CN(c1ccc3ncnc(Nc4ccc(Oc5ccn6ncnc6c5)c(Cl)c4F)c3n1)C2" , thanks.
0.114 µM

Need IC50 of C=CC(=O)N1CC[C@H](c2ccc3ncnc(Nc4ccc(Oc5ccc6c(c5)ncn6C)c(C)c4F)c3n2)CC(C)(C)C1 (racemic) , thanks.
≥ 10 µM

Need IC50 of "C=CC(=O)N1CCC(Oc2ccc3ncnc(Nc4ccc(Oc5ccc6cn(C)nc6c5)c(C)c4F)c3n2)CC1" , thanks.
≥ 10 µM

###

Experimental System: ErbB2 with Exon 20 YVMA insertion (HER2-YVMA) (Homo sapiens (Human), UniProt P04626, INS775YVMA)
Sequence (P04626 other isoform, or with tags, fused parts or gaps ins YVMA behind 775): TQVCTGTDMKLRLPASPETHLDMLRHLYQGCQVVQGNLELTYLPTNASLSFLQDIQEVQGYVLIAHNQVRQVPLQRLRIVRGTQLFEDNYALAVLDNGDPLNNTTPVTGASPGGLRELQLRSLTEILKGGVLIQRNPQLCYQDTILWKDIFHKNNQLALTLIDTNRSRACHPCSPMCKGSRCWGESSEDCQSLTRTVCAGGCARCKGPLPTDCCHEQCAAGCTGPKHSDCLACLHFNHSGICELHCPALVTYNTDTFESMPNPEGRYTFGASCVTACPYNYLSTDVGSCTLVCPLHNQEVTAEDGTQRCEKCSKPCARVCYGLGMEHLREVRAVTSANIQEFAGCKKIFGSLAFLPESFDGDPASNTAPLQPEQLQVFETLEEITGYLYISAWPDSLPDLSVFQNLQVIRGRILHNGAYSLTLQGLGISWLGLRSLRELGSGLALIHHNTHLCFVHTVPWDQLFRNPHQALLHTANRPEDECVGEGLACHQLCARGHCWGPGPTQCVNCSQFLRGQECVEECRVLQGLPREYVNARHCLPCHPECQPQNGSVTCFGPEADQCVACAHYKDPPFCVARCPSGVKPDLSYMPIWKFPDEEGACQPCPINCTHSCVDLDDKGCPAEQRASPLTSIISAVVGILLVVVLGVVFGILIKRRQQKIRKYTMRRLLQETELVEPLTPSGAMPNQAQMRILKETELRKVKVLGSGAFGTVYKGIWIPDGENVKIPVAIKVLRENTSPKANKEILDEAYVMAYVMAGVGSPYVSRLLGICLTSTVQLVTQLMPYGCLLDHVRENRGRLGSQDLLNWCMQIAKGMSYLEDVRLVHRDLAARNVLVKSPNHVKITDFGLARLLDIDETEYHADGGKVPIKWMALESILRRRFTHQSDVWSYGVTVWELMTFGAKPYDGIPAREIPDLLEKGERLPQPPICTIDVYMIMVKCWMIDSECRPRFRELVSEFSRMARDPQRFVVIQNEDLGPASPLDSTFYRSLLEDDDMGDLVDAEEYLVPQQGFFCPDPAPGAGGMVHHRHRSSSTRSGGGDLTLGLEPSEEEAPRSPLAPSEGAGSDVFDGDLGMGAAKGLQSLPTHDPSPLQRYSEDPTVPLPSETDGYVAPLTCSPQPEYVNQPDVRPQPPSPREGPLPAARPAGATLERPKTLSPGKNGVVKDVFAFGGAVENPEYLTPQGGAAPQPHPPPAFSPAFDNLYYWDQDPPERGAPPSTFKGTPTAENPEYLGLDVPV
Test Name: Cellular Phosphorylation Assay, Assay 4 (constitutive ErbB2 phosphorylation, NIH 3T3 cells)
Format: cell-based
Setup Conditions: cellular ErbB2 YVMA phosphorylation
Description: NIH 3T3 cells were engineered to express ErbB2 with Exon 20 YVMA insertion (HER2-YVMA (SEQ ID NO: 2); Assay 4) or EGFR wild type (EGFR WT; Assay 5) with constructs obtained from GenScript and grown in DMEM supplemented with 10% fetal bovine serum and 15 μg/ml blasticidin. […] Serially diluted compounds were added to the plates for 1 hour at 37° C./5% CO2. EGFR WT cells were stimulated with 100 ng/ml rEGF for an additional 10 minutes at 37° C./5% CO2. […]
Field: label. Allowed values: 1.0 (IC50 < 30 nM) or 0.0 (IC50 >= 30 nM).

Field: example entries. Status: answers known.
smiles_repr=C=CC(=O)N1C[C@@H]2C[C@H](c3ccc4ncnc(Nc5ccc(Oc6ccn7ncnc7c6)c(C)c5F)c4n3)C[C@H]1C2 cat=1.0
smiles_repr=C=CC(=O)N1CC[C@H]2C[C@H](c3ccc4ncnc(Nc5ccc(Oc6ccn7ncnc7c6)c(C)c5)c4n3)C[C@H]21 cat=1.0
smiles_repr=C=CC(=O)N1C[C@@H]2C[C@H]1CC[C@@H]2c1ccc2ncnc(Nc3cc(C)c(Oc4ccn5ncnc5c4)cc3F)c2n1 cat=0.0
smiles_repr=C=CC(=O)N1CCN(c2ccc3ncnc(Nc4ccc(Oc5ccc6c(c5)ncn6C)c(Cl)c4F)c3n2)CC1(C)C cat=0.0

Below 30 nM on IC50? Entry "C=CC(=O)N1[C@@H]2CC[C@H]1[C@H](c1ccc3ncnc(Nc4cc(C)c(Oc5ccc6c(c5)ncn6C)cc4F)c3n1)C2"
1.0

Below 30 nM on IC50? Entry "C=CC(=O)N1C[C@H]2CC[C@@H]1C[C@@H]2c1ccc2ncnc(Nc3ccc(Oc4cnc5c(c4)ncn5C)c(C)c3F)c2n1"
0.0

###

efflux ratio at 2 h, 1 µM for assorted compounds
Experimental System: BCRP (Homo sapiens (Human))
Sequence (Q9UNQ0 whole entry): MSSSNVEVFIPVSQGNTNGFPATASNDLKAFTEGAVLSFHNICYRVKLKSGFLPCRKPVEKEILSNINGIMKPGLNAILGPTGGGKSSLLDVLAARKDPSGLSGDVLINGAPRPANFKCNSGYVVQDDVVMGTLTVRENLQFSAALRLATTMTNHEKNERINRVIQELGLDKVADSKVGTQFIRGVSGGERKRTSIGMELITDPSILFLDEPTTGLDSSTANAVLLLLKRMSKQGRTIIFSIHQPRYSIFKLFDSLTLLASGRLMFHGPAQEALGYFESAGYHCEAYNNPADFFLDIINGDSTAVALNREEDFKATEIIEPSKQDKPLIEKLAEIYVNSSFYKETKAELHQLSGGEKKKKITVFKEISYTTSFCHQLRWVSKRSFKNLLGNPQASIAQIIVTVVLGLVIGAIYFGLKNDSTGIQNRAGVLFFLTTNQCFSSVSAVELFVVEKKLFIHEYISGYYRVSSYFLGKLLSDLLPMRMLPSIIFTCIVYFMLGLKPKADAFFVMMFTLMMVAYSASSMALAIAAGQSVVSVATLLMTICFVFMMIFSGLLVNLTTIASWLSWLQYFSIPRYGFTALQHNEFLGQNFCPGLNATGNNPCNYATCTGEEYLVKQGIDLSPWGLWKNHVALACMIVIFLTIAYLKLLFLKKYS
Test Name: BCRP MDCKII efflux assay (Assay 7)
Assay type: in vitro ADME
Setup Conditions: dog; efflux ratio Papp(B-A)/Papp(A-B), BCRP MDCKII cells; read-out: Assay 7 Pe Ratio
Number only, please.

// solved cases for efflux ratio at 2 h, 1 µM follow
smiles_repr=C=CC(=O)N1C[C@@H]2C[C@H]1CN2c1ccc2ncnc(Nc3cc(Cl)c(Oc4ccn5ncnc5c4)cc3F)c2n1 value_reported=12.4
smiles_repr=C=CC(=O)N1C[C@H]2CC[C@@H]1CN2c1ccc2ncnc(Nc3ccc(Oc4ccn5ncnc5c4)c(Cl)c3F)c2n1 value_reported=7.7
smiles_repr=C=CC(=O)N1CCN(c2ccc3ncnc(Nc4ccc(Oc5cnc6c(c5)ncn6C)c(C)c4F)c3n2)C[C@@H]1C1CC1 value_reported=1.7

Need efflux ratio at 2 h, 1 µM of "C=CC(=O)N1CCN(c2ccc3ncnc(Nc4ccc(Oc5ccc6c(c5)ncn6C)c(C)c4F)c3n2)CC1(C)C" , thanks.
3.8

Need efflux ratio at 2 h, 1 µM of "C=CC(=O)N1CCN(c2ccc3ncnc(Nc4ccc(Oc5cnc6c(c5)ncn6C)c(Cl)c4)c3n2)CC1" , thanks.
42.7

Need efflux ratio at 2 h, 1 µM of "C=CC(=O)N1C[C@H]2C[C@@H]1CN(c1ccc3ncnc(Nc4cc(Cl)c(Oc5cnc6c(c5)ncn6C)cc4F)c3n1)C2" , thanks.
7.2

Need efflux ratio at 2 h, 1 µM of "C=CC(=O)N1CC[C@H]2C[C@H](c3ccc4ncnc(Nc5ccc(Oc6ccn7ncnc7c6)c(C)c5)c4n3)C[C@H]21" , thanks.
9.5

###

Experimental System: EGFR wild type (EGFR WT) (Homo sapiens (Human), UniProt P00533)
Test Name: Cellular Phosphorylation Assay, Assay 5 (EGF-stimulated EGFR phosphorylation, NIH 3T3 cells)
Type: cell-based
Setup Conditions: cellular EGFR WT phosphorylation, EGF-stimulated
pIC50: −log10 of the molar value.
Endpoint Label: pIC50

smiles_repr=C=CC(=O)N1C[C@@H]2CN(c3ccc4ncnc(Nc5ccc(Oc6ccn7ncnc7c6)c(C)c5F)c4n3)C[C@@H]21 value_reported=5.69
smiles_repr=C=CC(=O)N(C)[C@H]1CCN(c2ccc3ncnc(Nc4ccc(Oc5ccn6ncnc6c5)c(C)c4F)c3n2)C1 value_reported="≤ 5.30"

# context switch: different compound, same pIC50
Need pIC50 of "C=CC(=O)N1[C@@H]2CC[C@H]1[C@H](c1ccc3ncnc(Nc4ccc(Oc5cnc6c(c5)ncn6C)c(C)c4)c3n1)C2" , thanks.
≤ 5.30
